Reference source for all entries: ChEMBL document CHEMBL4033773

- protocolText: Oral bioavailability in rat at 6 mg/kg
- Assay type: ADME, organism-based
- measurementContext: in vivo
readout: bioavailability
Lab note: write values as number then unit, every time.

# compound [2H]C([2H])([2H])Oc1ncc(-c2cc3c(C(=O)NC)c(-c4ccc(F)cc4)oc3nc2CCC(F)(F)F)cc1C(=O)NC(c1ncon1)(C([2H])([2H])[2H])C([2H])([2H])[2H] ; its bioavailability = 100%

----------
- protocolText: AUC in cynomolgus monkey at 3 mg/kg, po
- Assay type: ADME, organism-based, Macaca fascicularis
- measurementContext: in vivo
readout: AUC (µM·h)
Give a bare numeral; the unit µM·h is implied.

# molecule [2H]C([2H])([2H])Oc1ncc(-c2cc3c(C(=O)NC)c(-c4ccc(F)cc4)oc3nc2CCC(F)(F)F)cc1C(=O)NC(c1ncon1)(C([2H])([2H])[2H])C([2H])([2H])[2H] ; its AUC = 16

----------
- protocolText: Oral bioavailability in dog at 6 mg/kg
- Format: ADME, organism-based, Canis lupus familiaris
- measurementContext: in vivo
readout: bioavailability (%)
Give a bare numeral; the unit % is implied.

# compound [2H]C([2H])([2H])Oc1ncc(-c2cc3c(C(=O)NC)c(-c4ccc(F)cc4)oc3nc2CCC(F)(F)F)cc1C(=O)NC(c1ncon1)(C([2H])([2H])[2H])C([2H])([2H])[2H] ; its bioavailability = 90

----------
- protocolText: Volume of distribution at steady state in cynomolgus monkey at 1 mg/kg, iv or 3 mg/kg, po
- Type: ADME, organism-based, Macaca fascicularis
- measurementContext: in vivo, read-out: Vdss
readout: Vd (L/kg)
Give a bare numeral; the unit L/kg is implied.

# molecule [2H]C([2H])([2H])Oc1ncc(-c2cc3c(C(=O)NC)c(-c4ccc(F)cc4)oc3nc2CCC(F)(F)F)cc1C(=O)NC(c1ncon1)(C([2H])([2H])[2H])C([2H])([2H])[2H] ; its Vd = 2.3
